# PROCEDURE SUMMARY: Loading capacity and loading efficiency of lignin nanoparticles
# Format: physicochemical
# CONDITION SET: Compd/KL ratio 1:5
ENDPOINT: LC% (%)

Some molecules with recorded LC%:
molecule=Cc1cn(CCCCCCn2cc(C)c(=O)[nH]c2=O)c(=O)[nH]c1=O unit_info=% experimental_value=14.37
molecule="CC12C(=O)NC(=O)N3CCCCCCN4C(=O)NC(=O)C1(C)C4C32 (stereo not shown)" unit_info=% experimental_value=13.22

[P] Cc1cn(CCCCCn2cc(C)c(=O)[nH]c2=O)c(=O)[nH]c1=O
[Q] Cc1cn(CCCn2cc(C)c(=O)[nH]c2=O)c(=O)[nH]c1=O
Of P and Q , whose reported LC% is numerically smaller? # reply format: chosen label
Q
(Q: 5.59%, P: 12.52%)

* * *

# PROCEDURE SUMMARY: Loading capacity and loading efficiency of lignin nanoparticles
# Format: physicochemical
# CONDITION SET: Compd/KL ratio 1:5
ENDPOINT: LE% (%)

compound=Cc1cn(CCCn2cc(C)c(=O)[nH]c2=O)c(=O)[nH]c1=O endpoint=LE% experimental_value=49.94
compound="CC12C(=O)NC(=O)N3CCCCN4C(=O)NC(=O)C1(C)C4C32 (stereo not drawn)" endpoint=LE% experimental_value=50.94
compound="CC12C(=O)NC(=O)N3CCCCCN4C(=O)NC(=O)C1(C)C4C32 (stereo not drawn)" endpoint=LE% experimental_value=51.12
